target: UniProt P08069; experiment: Cellular IGF-1R assay: capture ELISA (MSD) of receptor phosphorylation in Hek293 cells; details: Hek293-IGF1R cells, 1 h pre-incubation, 10 min IGF stimulation, pIGF1R capture ELISA
Sequence (P08069 31-1367): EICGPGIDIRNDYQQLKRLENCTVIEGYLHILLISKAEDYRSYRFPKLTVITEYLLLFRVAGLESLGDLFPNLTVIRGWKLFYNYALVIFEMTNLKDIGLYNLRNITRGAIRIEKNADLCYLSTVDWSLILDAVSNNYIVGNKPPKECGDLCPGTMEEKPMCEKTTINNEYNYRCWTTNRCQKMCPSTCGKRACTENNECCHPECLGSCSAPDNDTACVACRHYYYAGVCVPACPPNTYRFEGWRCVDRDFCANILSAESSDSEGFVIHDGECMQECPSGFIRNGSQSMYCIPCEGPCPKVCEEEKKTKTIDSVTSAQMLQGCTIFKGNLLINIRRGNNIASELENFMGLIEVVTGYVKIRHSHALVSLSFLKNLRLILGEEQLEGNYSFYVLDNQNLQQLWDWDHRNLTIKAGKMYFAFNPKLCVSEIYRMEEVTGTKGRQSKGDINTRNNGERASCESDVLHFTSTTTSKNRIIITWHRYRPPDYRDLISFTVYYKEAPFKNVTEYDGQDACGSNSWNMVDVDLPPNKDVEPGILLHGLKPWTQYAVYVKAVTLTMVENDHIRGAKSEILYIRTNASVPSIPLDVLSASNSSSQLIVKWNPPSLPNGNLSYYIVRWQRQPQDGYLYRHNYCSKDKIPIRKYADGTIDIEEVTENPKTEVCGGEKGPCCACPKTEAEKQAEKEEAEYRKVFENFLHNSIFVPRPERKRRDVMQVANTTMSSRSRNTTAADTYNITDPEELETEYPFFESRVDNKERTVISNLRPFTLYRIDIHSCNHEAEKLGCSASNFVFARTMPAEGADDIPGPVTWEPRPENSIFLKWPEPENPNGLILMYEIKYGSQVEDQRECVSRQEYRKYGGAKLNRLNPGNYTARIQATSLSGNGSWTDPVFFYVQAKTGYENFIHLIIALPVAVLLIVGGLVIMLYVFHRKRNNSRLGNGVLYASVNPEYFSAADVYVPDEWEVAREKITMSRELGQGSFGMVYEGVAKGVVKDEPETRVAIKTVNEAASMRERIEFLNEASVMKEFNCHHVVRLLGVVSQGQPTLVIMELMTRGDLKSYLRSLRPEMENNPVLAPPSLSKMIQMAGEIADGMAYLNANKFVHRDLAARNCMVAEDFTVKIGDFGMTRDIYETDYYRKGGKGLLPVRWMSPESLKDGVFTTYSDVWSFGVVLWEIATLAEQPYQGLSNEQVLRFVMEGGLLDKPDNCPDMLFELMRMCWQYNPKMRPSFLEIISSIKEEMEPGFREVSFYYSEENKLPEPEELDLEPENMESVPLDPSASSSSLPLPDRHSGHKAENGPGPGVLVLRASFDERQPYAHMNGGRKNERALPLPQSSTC
pIC50: −log10 of the molar value.
READOUT_TYPE: pIC50

Solved entries (count: 6):
# COMPOUND, STUDY_TARGET, pIC50
rows = [
    ("NC(=O)[C@H]1CCCN1C[C@H]1C[C@H](n2cc(-c3cccc(OCC45CCC(CC4)O5)c3)c3c(N)ncnc32)C1", "UniProt P08069", 8.15),
    ("CC1(C)CCC(COc2cccc(-c3cn(C4CC(CN5CCC(F)C5)C4)c4ncnc(N)c34)c2)O1 (single isomer, unassigned) [Example 45]", "UniProt P08069", 7.46),
    ("CC1(C)CCC(COc2cccc(-c3cn([C@H]4C[C@@H](CN5CCC(F)CC5)C4)c4ncnc(N)c34)c2)O1 (single isomer, unassigned) [Example 74]", "UniProt P08069", 7.28),
    ("CC1(C)CCC(COc2cccc(-c3cn([C@H]4C[C@H](CN5CC(O)C5)C4)c4ncnc(N)c34)c2)O1 (relative stereo)", "UniProt P08069", 7.59),
    ("Nc1ncnc2c1c(-c1cccc(OCC34CCC(CC3)O4)c1)cn2C1CC(O)(CN2CCCC2CO)C1 (single isomer, unassigned) [Example 211]", "UniProt P08069", 6.65),
    ("CC1(C)CN(C[C@H]2C[C@@H](n3cc(-c4cccc(OCC5CCCCO5)c4)c4c(N)ncnc43)C2)CCS1(=O)=O (stereo partly shown)", "UniProt P08069", 6.39),
]

I = Nc1ncnc2c1c(-c1cccc(OCC34CCC(CC3)O4)c1)cn2[C@H]1CC[C@@H](CN2CC[S+]([O-])CC2)CC1
II = NC(=O)[C@H]1[C@@H](O)CCN1C[C@H]1C[C@@H](n2cc(-c3cccc(OCC4CCCCO4)c3)c3c(N)ncnc32)C1 (stereo partly shown)
III = Nc1ncnc2c1c(-c1cccc(OCC34CCC(CC3)O4)c1)cn2C1CC(O)(CN2CCCC2CO)C1 (single isomer, unassigned) [Example 209]
IV = NC(=O)[C@H]1CCCN1C[C@H]1C[C@@H](n2cc(-c3cccc(OCC4CCCO4)c3)c3c(N)ncnc32)C1 (stereo partly shown)
Which order do these items take when sorted by rising pIC50? List them. Provide the ranking by listing each label in its place in the requested order.
I, IV, II, III
(I: 6.54, IV: 6.80, II: 7.01, III: 7.22)
